Provenance of the data: ChEMBL document CHEMBL1275451

- Test system: Pichia kudriavzevii
- assay.overview: Antifungal activity against Candida krusei after 48 hrs by CLSI method
- Assay type: functional
*1 amine or outer side, *2 acyl side, *3 side chain or, on linkers, in order; H or OH if unused. Where a SMILES comes first, the peptide text is derived from it. Bridges are numbered along the chain shown (N, C = ends). [ ]: non-standard residue; d: D form. The star is where a group is joined. hTyr(3S-OH,4S-OH,3'-OSO3H) = N[C@H](C(=O)O)[C@H](O)[C@@H](O)c1ccc(O)c(OS(=O)(=O)O)c1; pTerphenylCO(4''-OnC5H11) = CCCCCOc1ccc(-c2ccc(-c3ccc(C(=O)*)cc3)cc2)cc1; Orn(4R-OH,5R-OH) = O=C([C@H](C[C@@H](O)[C@@H](O)N[*:3])N[*:1])[*:2]; hTyr(3S-OH,4S-OH) = N[C@H](C(=O)O)[C@H](O)[C@@H](O)c1ccc(O)cc1; Pro(3S-OH,4S-Me) = C[C@H]1CN[C@H](C(=O)O)[C@H]1O; X1 = CCCCCOc1ccc(-c2cc(-c3ccc(C(=O)*)cc3)no2)cc1; Gln(3R-OH) = NC(=O)C[C@@H](O)[C@H](N)C(=O)O; Hyp = O=C(O)[C@@H]1C[C@@H](O)CN1
recorded.metric: MIC90 (µg/mL)
Your answer should be a plain number; it is taken to be in µg/mL.

Given the entry CCCCCOc1ccc(-c2ccc(-c3ccc(C(=O)N[C@H]4C[C@@H](O)[C@@H](O)NC(=O)[C@@H]5[C@@H](O)[C@@H](C)CN5C(=O)[C@H]([C@@H](C)O)NC(=O)[C@H]([C@H](O)[C@@H](O)c5ccc(O)cc5)NC(=O)[C@@H]5C[C@@H](O)CN5C(=O)[C@H]([C@@H](C)O)NC4=O)cc3)cc2)cc1 [ANIDULAFUNGIN] ({pTerphenylCO(4''-OnC5H11)}-[Orn(4R-OH,5R-OH)]T[Hyp][hTyr(3S-OH,4S-OH)]T[Pro(3S-OH,4S-Me)]; lactam 1-C) , report its measured MIC90.
0.25

Entry under review: CCCCCOc1ccc(-c2cc(-c3ccc(C(=O)N[C@H]4C[C@@H](O)[C@@H](O)NC(=O)[C@@H]5[C@@H](O)[C@@H](C)CN5C(=O)[C@H]([C@H](O)CC(N)=O)NC(=O)[C@H]([C@H](O)[C@@H](O)c5ccc(O)c(OS(=O)(=O)O)c5)NC(=O)[C@@H]5C[C@@H](O)CN5C(=O)[C@H]([C@@H](C)O)NC4=O)cc3)no2)cc1 [MICAFUNGIN] (X1-[Orn(4R-OH,5R-OH)]T[Hyp][hTyr(3S-OH,4S-OH,3'-OSO3H)][Gln(3R-OH)][Pro(3S-OH,4S-Me)]; lactam 1-C) . Reported MIC90?
0.5
